Hello, the source for this data is paper PMC7663149, in case you need it.

Biological target: BTK (Homo sapiens)
Construct: purchased Promega
Sequence (Q06187 whole entry): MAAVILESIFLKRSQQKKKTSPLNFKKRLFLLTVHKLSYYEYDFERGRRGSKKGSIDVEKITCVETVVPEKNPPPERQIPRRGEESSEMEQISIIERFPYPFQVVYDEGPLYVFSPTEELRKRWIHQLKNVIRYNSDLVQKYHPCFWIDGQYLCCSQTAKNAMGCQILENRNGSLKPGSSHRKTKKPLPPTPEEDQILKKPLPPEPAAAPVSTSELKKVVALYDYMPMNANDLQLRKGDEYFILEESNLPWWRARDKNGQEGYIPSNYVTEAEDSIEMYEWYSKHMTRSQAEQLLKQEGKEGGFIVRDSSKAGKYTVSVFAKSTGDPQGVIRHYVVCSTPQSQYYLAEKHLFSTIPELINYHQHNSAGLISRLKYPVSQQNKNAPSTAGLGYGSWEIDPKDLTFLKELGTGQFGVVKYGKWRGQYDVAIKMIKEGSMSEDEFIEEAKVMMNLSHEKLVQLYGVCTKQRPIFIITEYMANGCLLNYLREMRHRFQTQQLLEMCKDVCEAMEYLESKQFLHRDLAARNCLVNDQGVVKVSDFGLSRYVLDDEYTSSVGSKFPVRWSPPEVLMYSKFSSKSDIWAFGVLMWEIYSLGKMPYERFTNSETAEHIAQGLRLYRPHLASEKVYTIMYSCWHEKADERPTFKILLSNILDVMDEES
Assay: HotSpot kinase assay (Reaction Biology Corp.), BTK
Format: biochemical
Conditions: relative percentage inhibition at 20 μM of compound compared with staurosporine; HotSpot kinase assay; 10 μM ATP; Table 1
Protocol: Synthesized aminopyridine derivatives were evaluated for in vitro BTK enzyme inhibitory activities. […] In vitro profiling of BTK, BMX, EGFRK, ERBB2, ERBB4, ITK, JAK3, TEC, and TXK kinases was performed at Reaction Biology Corporation (Malvern, PA, USA). […] After 2 h at room temperature, the reaction mixture was spotted onto P81 ion exchange paper, and then kinase activity was detected by the filter-binding method. […]
Binary classification by % Inhibition, with 80% as an inclusive lower bound for Condition met; all other cases are Condition not met.

C=CC(=O)Oc1cccc(Oc2cnc(N)c(N3CCN(CCc4ccccc4)CC3)c2)c1; Condition met
C=CC(=O)Oc1cccc(Oc2cnc(N)c(N3CCN(CCc4ccc(Cl)cc4)CC3)c2)c1; Condition not met
C=CC(=O)Oc1cccc(Oc2cnc(N)c(N3CCN(Cc4ccccc4)CC3)c2)c1; Condition met
C=CC(=O)Oc1cccc(Oc2cnc(N)c(N3CCN(C(=O)OCc4ccccc4)CC3)c2)c1; Condition not met
C=CC(=O)Oc1cccc(Oc2cnc(N)c(N3CCN(Cc4ccc(Cl)cc4)CC3)c2)c1; Condition met
C=CC(=O)Oc1cccc(Oc2cnc(N)c(N3CCN(Cc4ccc(F)cc4)CC3)c2)c1; Condition met
C=CC(=O)Oc1cccc(Oc2cnc(N)c(N3CCNCC3)c2)c1; Condition not met
